src = paper PMC10023787

Assignment: determine reported remaining activity at 0.32 µM for the given molecules.
- test_target: bovine carbonic anhydrase II (CAII) (Bos taurus, UniProt P00921)
- Construct: purchased Sigma-Aldrich C7749
- Sequence (P00921 whole entry): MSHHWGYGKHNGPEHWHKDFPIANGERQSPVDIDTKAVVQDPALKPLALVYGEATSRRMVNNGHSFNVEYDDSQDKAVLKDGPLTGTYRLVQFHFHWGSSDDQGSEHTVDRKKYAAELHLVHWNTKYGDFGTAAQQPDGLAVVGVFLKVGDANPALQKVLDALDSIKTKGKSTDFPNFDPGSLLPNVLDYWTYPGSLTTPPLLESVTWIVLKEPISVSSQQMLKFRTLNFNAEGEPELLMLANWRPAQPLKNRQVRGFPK
- test_name: Carbonic anhydrase II inhibition assay (esterase activity on p-nitrophenyl acetate)
- Format: biochemical
- condition_info: 320 nM compound; source data of Fig. 2c; read-out: Normalized CA II Activity (Mean)
One number for each entry, in %.

Some molecules with recorded remaining activity at 0.32 µM:
>  <smiles_data>
NS(=O)(=O)c1ccc(NC(=O)c2ccc(-n3cc(CCC(=O)NCCNC(=O)/C=C/c4ccc(-c5ccccc5C(F)(F)F)o4)nn3)cc2)cc1

>  <experimental_value>
90.3

$$$$
>  <smiles_data>
NS(=O)(=O)c1ccc(NCc2ccc(C(=O)NCCNC(=O)/C=C/c3ccc(-c4ccccc4C(F)(F)F)o3)cc2)cc1

>  <experimental_value>
71.8

$$$$
>  <smiles_data>
NS(=O)(=O)c1ccc(NC(=O)COc2ccccc2OCC(=O)NCCNC(=O)/C=C/c2ccc(-c3ccccc3C(F)(F)F)o2)cc1

>  <experimental_value>
61.4

$$$$
>  <smiles_data>
NS(=O)(=O)c1ccc(NC(=O)/C=C/c2ccc(-c3ccccc3C(F)(F)F)o2)cc1

>  <experimental_value>
65.6

$$$$

Switching to the query record.
Reported remaining activity at 0.32 µM for `NS(=O)(=O)c1ccc(NC(=O)COCC(=O)NCCNC(=O)/C=C/c2ccc(-c3ccccc3C(F)(F)F)o2)cc1` was 78.3

====

- test_target: MMP-9 (Homo sapiens, UniProt P14780)
- Construct: purchased Sino Biological 10327-HNAH
- Sequence (P14780 107-707 limits assumed): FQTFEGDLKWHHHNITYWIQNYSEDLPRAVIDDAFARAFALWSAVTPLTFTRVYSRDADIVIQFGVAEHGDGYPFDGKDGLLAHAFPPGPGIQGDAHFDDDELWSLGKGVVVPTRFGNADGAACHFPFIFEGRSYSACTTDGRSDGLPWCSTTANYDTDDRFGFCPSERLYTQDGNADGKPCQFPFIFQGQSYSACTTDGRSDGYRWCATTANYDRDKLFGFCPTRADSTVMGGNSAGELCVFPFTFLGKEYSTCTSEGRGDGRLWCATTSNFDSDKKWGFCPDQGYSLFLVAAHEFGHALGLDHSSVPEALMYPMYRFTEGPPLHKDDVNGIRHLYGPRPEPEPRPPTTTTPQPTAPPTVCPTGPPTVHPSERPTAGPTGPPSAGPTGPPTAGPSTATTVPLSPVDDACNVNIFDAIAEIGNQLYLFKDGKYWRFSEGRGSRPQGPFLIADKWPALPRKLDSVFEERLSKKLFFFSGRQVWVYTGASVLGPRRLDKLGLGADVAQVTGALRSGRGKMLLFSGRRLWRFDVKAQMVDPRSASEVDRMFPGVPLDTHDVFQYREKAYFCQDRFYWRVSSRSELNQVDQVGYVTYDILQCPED
- test_name: MMP-9 inhibition assay (fluorogenic peptide substrate)
- Type: biochemical
- Set-up: scale not given here
- condition_info: MMP-9; concentration 0.39 µM
Assignment: determine reported remaining enzyme activity (% of control) for the given compounds.
Give bare numbers.

Some compounds with recorded remaining enzyme activity (% of control):
>  <smiles_data>
Cc1cc(=O)[nH]c(-n2nc(C)c(CCC(=O)NCCOCCOCCNC(=O)CCC(=O)NCc3c[nH]nn3)c2C)n1

>  <experimental_value>
100.55

$$$$
>  <smiles_data>
O=C(CNC(=O)NC12CC3CC(CC(C3)C1)C2)NCc1c[nH]nn1

>  <experimental_value>
107.83

$$$$
>  <smiles_data>
Cc1cc(=O)[nH]c(-n2nc(C)c(CCC(=O)NCCOCCOCCNC(=O)c3cncc(O)c3)c2C)n1

>  <experimental_value>
99.26

$$$$
>  <smiles_data>
O=C(CCCCCCC(=O)NCC12CC3CC(CC(C3)C1)C2)NCc1c[nH]nn1

>  <experimental_value>
95.25

$$$$

Switching to the query record.
Reading of remaining enzyme activity (% of control) for `O=C(CNC(=O)NC12CC3CC(CC(C3)C1)C2)NCCOCCOCCNC(=O)c1cncc(O)c1` with MMP-9 (Homo sapiens, UniProt P14780): 105.32

====

- test_target: bovine carbonic anhydrase II (CAII) (Bos taurus)
- Construct: purchased Sigma-Aldrich C7749
- test_name: Carbonic anhydrase II inhibition assay (esterase activity on p-nitrophenyl acetate)
- Format: biochemical
- condition_info: 200000 nM compound; source data of Fig. 2c; read-out: Normalized CA II Activity (Mean)
Just a reminder that ties go to -1: only remaining activity at 200 µM strictly below 9% counts as 1.

Here are 3 compounds together with their reported answers.
>  <smiles_data>
NS(=O)(=O)c1ccc(NCc2ccc(C(=O)NCCNC(=O)/C=C/c3ccc(-c4ccccc4C(F)(F)F)o3)cc2)cc1

>  <qualitative_label>
1

$$$$
>  <smiles_data>
NS(=O)(=O)c1ccc(NC(=O)COc2ccccc2OCC(=O)NCCNC(=O)/C=C/c2ccc(-c3ccccc3C(F)(F)F)o2)cc1

>  <qualitative_label>
-1

$$$$
>  <smiles_data>
NS(=O)(=O)c1ccc(NC(=O)/C=C/c2ccc(-c3ccccc3C(F)(F)F)o2)cc1

>  <qualitative_label>
-1

$$$$

Consider now this further compound.
Is it true that remaining activity at 200 µM reported for `NS(=O)(=O)c1ccc(NC(=O)COCC(=O)NCCNC(=O)/C=C/c2ccc(-c3ccccc3C(F)(F)F)o2)cc1` is less than 9%?
-1
